All values here come from patent US9512117B2.

The entries below come with measured Log P [b] values attached.
# experiment_notes: logP by HPLC on reversed-phase columns (C 18), EEC directive 79/831 Annex V.A8
# Format: physicochemical
# assay_setup: LC-MS, neutral range, pH 7.8, 0.001 molar aqueous ammonium hydrogencarbonate and acetonitrile

// known answers, use as guide
# compound, meas_value
data = [
    ("C=CCOc1cccc(C2CC(c3csc(C4CCN(C(=O)Cn5nc(C(F)(F)F)cc5C)CC4)n3)=NO2)c1 (racemic)", "3.68[b];"),
    ("C=CCOc1ccccc1C1CC(c2csc(C3CCN(C(=O)Nc4cc(C)ccc4C)CC3)n2)=NO1 (racemic)", "3.81[b]"),
]

Let's switch to this compound now.
COCCOc1cccc(F)c1C1CC(c2csc(C3CCN(C(=O)Cn4nc(C(F)(F)F)cc4C)CC3)n2)=NO1 (racemic) yielded Log P [b] of 3.17[b]
